B1: tRNA (parent)
chain: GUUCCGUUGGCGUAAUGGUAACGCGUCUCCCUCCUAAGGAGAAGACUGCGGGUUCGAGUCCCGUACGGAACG

variants of: B1; test: yeast fitness relative to wild type (ratio to wild type); higher = fitter; tRNA-Arg(CCU), competitive growth, 37 C, YPD
Variants at the floor of the assay were thinned out.
Listing: yeast fitness of selected variants

{"Variant Identifier": "C49U G63A", "Value Comparator": "=", "yeast fitness": 0.908}
{"Variant Identifier": "C30G C31A A36G G63C", "Value Comparator": "≤", "yeast fitness": 0.5}
{"Variant Identifier": "C5U U26A C46G", "Value Comparator": "=", "yeast fitness": 0.717}
{"Variant Identifier": "G9A C30A", "Value Comparator": "=", "yeast fitness": 0.964}
{"Variant Identifier": "A21U G25A G51A C60A", "Value Comparator": "≤", "yeast fitness": 0.5}
{"Variant Identifier": "U2C A15C C24A G41C G68A", "Value Comparator": "≤", "yeast fitness": 0.5}
{"Variant Identifier": "A69C", "Value Comparator": "=", "yeast fitness": 1.03}
{"Variant Identifier": "U16A G17C A43U A45C C46A", "Value Comparator": "=", "yeast fitness": 0.613}
{"Variant Identifier": "C22G C24G U32A C66U", "Value Comparator": "≤", "yeast fitness": 0.5}
{"Variant Identifier": "A20U G25A C27G G67A", "Value Comparator": "=", "yeast fitness": 0.542}
{"Variant Identifier": "A15G C31U G58A", "Value Comparator": "=", "yeast fitness": 1.03}
{"Variant Identifier": "C4A G17A C27G C55U", "Value Comparator": "=", "yeast fitness": 0.62}
{"Variant Identifier": "C5A C60G C66G A69G", "Value Comparator": "≤", "yeast fitness": 0.5}
{"Variant Identifier": "C24U C27U", "Value Comparator": "=", "yeast fitness": 0.972}
{"Variant Identifier": "C24G U53G A57G", "Value Comparator": "=", "yeast fitness": 0.545}
{"Variant Identifier": "G18A C31G A70U", "Value Comparator": "=", "yeast fitness": 0.687}
{"Variant Identifier": "G9C U28A", "Value Comparator": "=", "yeast fitness": 0.708}
{"Variant Identifier": "U8A A15C A21G C27U C46U A70G", "Value Comparator": "≤", "yeast fitness": 0.5}
{"Variant Identifier": "C5U A69C", "Value Comparator": "=", "yeast fitness": 0.865}
{"Variant Identifier": "C5U G6C C11A C31G A36C", "Value Comparator": "≤", "yeast fitness": 0.5}
{"Variant Identifier": "C4A C31G A40U", "Value Comparator": "=", "yeast fitness": 0.62}
{"Variant Identifier": "G9A A20G C62U", "Value Comparator": "=", "yeast fitness": 0.736}
{"Variant Identifier": "U7C G48A U54A C55G A65U", "Value Comparator": "≤", "yeast fitness": 0.5}
{"Variant Identifier": "A37C A65G", "Value Comparator": "=", "yeast fitness": 0.94}
{"Variant Identifier": "C5U A40C A65U", "Value Comparator": "=", "yeast fitness": 0.643}
{"Variant Identifier": "A14C A21C C27U", "Value Comparator": "≤", "yeast fitness": 0.5}
{"Variant Identifier": "C4A A45C U47A", "Value Comparator": "=", "yeast fitness": 0.708}
{"Variant Identifier": "G9C U19C A69U", "Value Comparator": "=", "yeast fitness": 0.656}
{"Variant Identifier": "U19A C24G C33G C34G", "Value Comparator": "=", "yeast fitness": 0.528}
{"Variant Identifier": "C27A C29G C49G G51C U54C", "Value Comparator": "≤", "yeast fitness": 0.5}
{"Variant Identifier": "C34A U54A G67A", "Value Comparator": "≤", "yeast fitness": 0.5}
{"Variant Identifier": "C11A A36G G56C", "Value Comparator": "≤", "yeast fitness": 0.5}
{"Variant Identifier": "G10A G17A C30G U35A G50A", "Value Comparator": "=", "yeast fitness": 0.626}
{"Variant Identifier": "U35C G52A", "Value Comparator": "=", "yeast fitness": 0.658}
{"Variant Identifier": "U2C U19A", "Value Comparator": "=", "yeast fitness": 0.845}
{"Variant Identifier": "C24A C66G", "Value Comparator": "=", "yeast fitness": 0.548}
{"Variant Identifier": "U2G C31U G50A C60U", "Value Comparator": "≤", "yeast fitness": 0.5}
{"Variant Identifier": "U3A G12C G52A A65U", "Value Comparator": "≤", "yeast fitness": 0.5}
{"Variant Identifier": "A15U C27U C34U G41C U47G", "Value Comparator": "=", "yeast fitness": 0.555}
{"Variant Identifier": "C4A C5A C30A C31U C33A A45U", "Value Comparator": "≤", "yeast fitness": 0.5}
{"Variant Identifier": "C4G U8C C24U A43G", "Value Comparator": "=", "yeast fitness": 0.527}
{"Variant Identifier": "C30U C60G", "Value Comparator": "=", "yeast fitness": 0.661}
{"Variant Identifier": "U2C G23C C55G", "Value Comparator": "=", "yeast fitness": 0.553}
{"Variant Identifier": "C22G C31U G39A", "Value Comparator": "=", "yeast fitness": 0.636}
{"Variant Identifier": "G18A C31A", "Value Comparator": "=", "yeast fitness": 0.554}
{"Variant Identifier": "C5A A20C C22A A36C A69C", "Value Comparator": "≤", "yeast fitness": 0.5}

All values here come from the RNAGym collection of RNA variant scans (doi:10.1126/science.aae0568).
